B1: F1*; the commonest letter at each place (parent)
chain: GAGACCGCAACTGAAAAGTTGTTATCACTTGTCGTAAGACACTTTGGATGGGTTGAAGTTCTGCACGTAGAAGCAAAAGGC

- Variants of: B1
- ASSAY PROTOCOL: fraction ligated after 30 min (ligated reads / total reads); higher = more ligase activity
- APPLIED CONDITIONS: with F1*sub RNA substrate (template-directed ligation), 42 °C
MEASUREMENT NAME: fraction ligated
A bare number is all that is needed in reply.

Some variants with known fraction ligated results, for comparison:
C26G A37T    0.707
G31C A36T    0.79
A39C T45A    0.778
A37C G46T    0.785
A39T C40T    0.809
G47C A57C    0.0685
T35A T49G    0.817
A24G G38C    0.695
T43C G47C    0.276
C28G A39T    0.755

Challenge: Give the measured fraction ligated of T25G A36G .
Response given: 0.795

FYI, the data here is from the supplement of paper PMC6755084.
